- measurement.notes: Ratio of drug level in cerebrospinal fluid to brain of rat at 3 mg/kg, iv
- Format: ADME, organism-based, CSF/Brain
- Design: dose 3 mg/kg, route intravenous
- test.conditions: in vivo
Item-by-item account of Ratio
reported.metric: Ratio

>>> data_value("O=C1O[C@]2(CC[C@H](C(=O)Nc3ncc(-c4cccc(CF)c4)cn3)CC2)c2cnccc21")
0.22
>>> data_value("O=C1O[C@]2(CC[C@H](C(=O)Nc3ncc(-c4ccccc4F)cn3)CC2)c2ccncc21")
0.19
>>> data_value("O=C1O[C@]2(CC[C@H](C(=O)Nc3ncc(-c4cccc(F)c4)cn3)CC2)c2ccncc21")
0.22
>>> data_value("O=C1O[C@]2(CC[C@H](C(=O)Nc3ncc(-c4cccc(OCF)c4)cn3)CC2)c2cnccc21")
0.13
>>> data_value("O=C1O[C@]2(CC[C@H](C(=O)Nc3ncc(-c4cccc(OCF)c4)cn3)CC2)c2ccncc21")
0.42

---

Let's look at some molecules and their measured pIC50.
- test.system: Neuropeptide Y receptor type 5 (Homo sapiens)
- Sequence (Q15761 whole entry): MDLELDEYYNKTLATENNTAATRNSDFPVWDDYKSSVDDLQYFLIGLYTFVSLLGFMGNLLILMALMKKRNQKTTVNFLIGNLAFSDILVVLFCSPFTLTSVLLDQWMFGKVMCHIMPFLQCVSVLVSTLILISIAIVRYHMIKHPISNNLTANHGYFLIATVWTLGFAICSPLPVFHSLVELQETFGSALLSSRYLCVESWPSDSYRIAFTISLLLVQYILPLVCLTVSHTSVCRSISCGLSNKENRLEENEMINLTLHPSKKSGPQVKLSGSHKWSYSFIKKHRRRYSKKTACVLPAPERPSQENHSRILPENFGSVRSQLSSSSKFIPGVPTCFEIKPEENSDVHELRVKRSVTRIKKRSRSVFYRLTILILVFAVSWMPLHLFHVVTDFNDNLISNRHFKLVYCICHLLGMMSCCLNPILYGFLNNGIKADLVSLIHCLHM
- measurement.notes: Displacement of [125I]PYY from human recombinant NPY Y5 receptor expressed in mouse LMtk cells
pIC50: −log10 of the molar value.
reported.metric: pIC50

>>> data_value("O=C1O[C@]2(CC[C@H](C(=O)Nc3ncc(-c4cccc(CF)c4)cn3)CC2)c2cnccc21")
8.74
>>> data_value("O=C1O[C@]2(CC[C@H](C(=O)Nc3ncc(-c4ccccc4F)cn3)CC2)c2ccncc21")
8.82
>>> data_value("O=C1O[C@]2(CC[C@H](C(=O)Nc3ncc(-c4cccc(OCF)c4)cn3)CC2)c2cccnc21")
8.51
>>> data_value("O=C1O[C@]2(CC[C@H](C(=O)Nc3ncc(-c4cccc(OCF)c4)cn3)CC2)c2cnccc21")
8.72
>>> data_value("O=C1O[C@]2(CC[C@H](C(=O)Nc3ncc(-c4ccccc4)cn3)CC2)c2cccnc21")
8.68
>>> data_value("O=C1O[C@]2(CC[C@H](C(=O)Nc3ncc(-c4ccccc4)cn3)CC2)c2cnccc21")
8.74
>>> data_value("O=C1O[C@]2(CC[C@H](C(=O)Nc3ncc(-c4ccccc4F)cn3)CC2)c2cccnc21")
8.52
>>> data_value("O=C1O[C@]2(CC[C@H](C(=O)Nc3ncc(-c4cccc(OCF)c4)cn3)CC2)c2ccncc21")
8.74
>>> data_value("O=C1O[C@]2(CC[C@H](C(=O)Nc3ncc(-c4ccc(F)cc4)cn3)CC2)c2ccncc21")
8.66
>>> data_value("O=C1O[C@]2(CC[C@H](C(=O)Nc3ncc(-c4ccccc4CF)cn3)CC2)c2cnccc21")
8.70
>>> data_value("O=C1O[C@]2(CC[C@H](C(=O)Nc3ncc(-c4ccccc4OCF)cn3)CC2)c2cnccc21")
8.59
>>> data_value("O=C1O[C@]2(CC[C@H](C(=O)Nc3ncc(-c4cccc(F)c4)cn3)CC2)c2cccnc21")
8.66
>>> data_value("O=C1O[C@]2(CC[C@H](C(=O)Nc3ncc(-c4ccccc4)cn3)CC2)c2ccccc21")
9.19
>>> data_value("O=C1O[C@]2(CC[C@H](C(=O)Nc3ncc(-c4ccccc4OCF)cn3)CC2)c2ccncc21")
8.66
>>> data_value("O=C1O[C@]2(CC[C@H](C(=O)Nc3ncc(-c4ccccc4)cn3)CC2)c2ncccc21")
8.54
>>> data_value("O=C1O[C@]2(CC[C@H](C(=O)Nc3ncc(-c4cccc(F)c4)cn3)CC2)c2ccncc21")
8.82
>>> data_value("O=C1O[C@]2(CC[C@H](C(=O)Nc3ncc(-c4ccccc4OCF)cn3)CC2)c2cccnc21")
8.35
>>> data_value("O=C1O[C@]2(CC[C@H](C(=O)Nc3ncc(-c4ccccc4)cn3)CC2)c2ccncc21")
8.70
>>> data_value("O=C1O[C@]2(CC[C@H](C(=O)Nc3ncc(-c4ccccc4F)cn3)CC2)c2cnccc21")
8.74
>>> data_value("O=C1O[C@]2(CC[C@H](C(=O)Nc3ncc(-c4ccc(F)cc4)cn3)CC2)c2cnccc21")
8.57
>>> data_value("O=C1O[C@]2(CC[C@H](C(=O)Nc3ncc(-c4cccc(F)c4)cn3)CC2)c2cnccc21")
8.74
